Target: T1, cynomolgus monkey IL-33 expressed with a C-terminal hexahistidine tag (cynomolgus monkey)
T1 construct: also called MfIL-33-6His; Mf-IL-33-6His
T1 chain: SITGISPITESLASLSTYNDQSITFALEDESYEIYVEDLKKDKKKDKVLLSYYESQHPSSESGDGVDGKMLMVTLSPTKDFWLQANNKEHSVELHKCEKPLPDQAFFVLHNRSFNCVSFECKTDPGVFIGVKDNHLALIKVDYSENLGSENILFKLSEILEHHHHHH
Assay: SPR 37C, pH6.0 chase, mAb captured
Each item that follows carries a reported t½.
Just the number please, in min, no unit attached.

// known answers, use as guide
{"binder": "H4H9675P (antibody, human IgG4, V domains shown, Human IgG4 Fc (H4H)) VH: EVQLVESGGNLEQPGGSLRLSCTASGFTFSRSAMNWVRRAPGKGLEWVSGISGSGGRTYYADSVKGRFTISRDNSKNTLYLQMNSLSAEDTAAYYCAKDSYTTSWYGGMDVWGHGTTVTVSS VL: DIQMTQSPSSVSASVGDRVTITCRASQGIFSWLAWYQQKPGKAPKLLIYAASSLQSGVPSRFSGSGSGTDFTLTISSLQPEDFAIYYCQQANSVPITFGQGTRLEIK", "t½ / min": 1.6}
{"binder": "H4H9664P (antibody, human IgG4, V domains shown, Human IgG4 Fc (H4H)) VH: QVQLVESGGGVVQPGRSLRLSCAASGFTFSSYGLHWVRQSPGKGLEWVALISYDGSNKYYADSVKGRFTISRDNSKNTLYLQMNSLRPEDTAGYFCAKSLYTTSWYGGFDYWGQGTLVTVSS VL: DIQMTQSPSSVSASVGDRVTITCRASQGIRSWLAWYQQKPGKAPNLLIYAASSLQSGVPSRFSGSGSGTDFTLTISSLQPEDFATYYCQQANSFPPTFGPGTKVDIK", "t½ / min": 6}

Now examine the next entry.
Given the entry H1M9566N (antibody, mouse IgG1, V domains shown, Human variable domains, mouse IgG1 Fc (H1M)) VH: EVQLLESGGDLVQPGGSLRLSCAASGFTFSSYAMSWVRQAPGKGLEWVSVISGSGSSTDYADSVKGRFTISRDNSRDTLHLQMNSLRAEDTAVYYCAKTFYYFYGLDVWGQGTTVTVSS VL: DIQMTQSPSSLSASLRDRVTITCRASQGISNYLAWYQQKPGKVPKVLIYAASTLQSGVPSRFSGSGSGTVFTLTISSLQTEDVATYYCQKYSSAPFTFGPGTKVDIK , report its measured t½. 10
